Data provenance is the supplement of paper PMC12042874.

# procedure summary: amyloid nucleation score (Sup35N fusion, yeast selection) (log enrichment); library NNK3; higher = more nucleation; inactive = no reads after selection;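 also: zero at mode of non-aggregating sequences after 7 days selection at 30°C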
experimental readout: amyloid nucleation score

Worked cases, answers included:
>>> measured_result("GGCCAYCSLDLVWMFDDRSV")
2.16
>>> measured_result("WLLFDPVGVVKQSLVARNSY")
"inactive"
>>> measured_result("KGTYGFAINHHYIA")
"inactive"
>>> measured_result("IMSSTGIFNLLRAESMCSLF")
"inactive"
>>> measured_result("RGKNVAWWVTSSTKSYSAK")
0.304
>>> measured_result("SGMKWYLRLYV")
"inactive"

Note to self: amyloid nucleation score recorded for `ELIMCCHEYSVLAMRLLA` was inactive

Note to self: amyloid nucleation score recorded for `VATYVPCPCYSMFCAGIC` was -0.355

Note to self: amyloid nucleation score recorded for `SSNDDFWIKGGQCEYIRFRL` was inactive

Note to self: amyloid nucleation score recorded for `SFSYNAQLYTQVVMSRYKMR` was -0.193

Note to self: amyloid nucleation score recorded for `SSQVET` was inactive

Note to self: amyloid nucleation score recorded for `RCICTRFLVPWDSIA` was inactive

----------
# procedure summary: amyloid nucleation score (Sup35N fusion, yeast selection) (log enrichment); library NNK2; higher = more nucleation; inactive = no reads after selection
Reported values of amyloid nucleation score for individual entries
Number only, no unit.

>>> measured_result("SFRDLDAAVEEV")
-0.225
>>> measured_result("FTTFRR")
-0.854
>>> measured_result("LFLLFFRFFQMGDLHYIIAI")
-0.661
>>> measured_result("NYITSSVCFCCSDPMYTPSR")
8.55
>>> measured_result("LGYIWLALRIVNCLDNGVPY")
-1
>>> measured_result("NWVLVVGSSWEFLSGSASGG")
2.18
>>> measured_result("QVLCIVLDTSMIGTKACLGV")
0.325
>>> measured_result("KSCSMMFILWVTAGMDRWGH")
6.25
>>> measured_result("AKCPIRNRSLSCIQWSGGAK")
0.398
>>> measured_result("LIQFDTISSLYP")
-0.271

Note to self: amyloid nucleation score recorded for `SVSGTLFPGYCWGNGKAGHF` was 1.56

Note to self: amyloid nucleation score recorded for `IHSNEDFVRSESGVLDAYSV` was -0.627

Note to self: amyloid nucleation score recorded for `QHSLAMSSHKLSTTVEESWP` was 0.818

----------
# procedure summary: amyloid nucleation score (Sup35N fusion, yeast selection) (log enrichment); library NNK2; higher = more nucleation; inactive = no reads after selection
Reported values of amyloid nucleation score for individual entries
Number only, no unit.

>>> measured_result("LTYACSWYQKSQFGSCLNEW")
0.449
>>> measured_result("LTRCPYGSCLNWERWVGYMM")
1.93
>>> measured_result("GVQYRSGESGDSASYWRLGG")
0.628

Note to self: amyloid nucleation score recorded for `GSYKSGSSSA` was 2.57

Note to self: amyloid nucleation score recorded for `FSKIIHDSALVNISWMHDGS` was 0.844

Note to self: amyloid nucleation score recorded for `LWVSVLFKMHAYWLGLEPNS` was 2

Note to self: amyloid nucleation score recorded for `CRSCEIVLGFLLSCNMCVLS` was 3.79

Note to self: amyloid nucleation score recorded for `SEYVDFYGFLGLVFTLRRSA` was 0.43

Note to self: amyloid nucleation score recorded for `GTSDSWTNVGRHYLKGVRDG` was -1.08

Note to self: amyloid nucleation score recorded for `DGGVYTNINIFGCLVGFGGW` was 8.01

Note to self: amyloid nucleation score recorded for `FCAYVAWLSSWNIQPAKGRG` was 1.1

Note to self: amyloid nucleation score recorded for `KSLDFR` was 0.493

Note to self: amyloid nucleation score recorded for `KFTLGHVNIVWNMVVYATQE` was 8.24

Note to self: amyloid nucleation score recorded for `CNSDGWCRIGSAVLPVRSID` was -0.441

Note to self: amyloid nucleation score recorded for `KTLVKESCCNLNSRSDLWGL` was -0.754

Note to self: amyloid nucleation score recorded for `AGLLPENYFSCILGINVVIF` was 3.13
